SYSTEM: beta-catenin (human)
Sequence (B6V8E6 146-665 limits assumed): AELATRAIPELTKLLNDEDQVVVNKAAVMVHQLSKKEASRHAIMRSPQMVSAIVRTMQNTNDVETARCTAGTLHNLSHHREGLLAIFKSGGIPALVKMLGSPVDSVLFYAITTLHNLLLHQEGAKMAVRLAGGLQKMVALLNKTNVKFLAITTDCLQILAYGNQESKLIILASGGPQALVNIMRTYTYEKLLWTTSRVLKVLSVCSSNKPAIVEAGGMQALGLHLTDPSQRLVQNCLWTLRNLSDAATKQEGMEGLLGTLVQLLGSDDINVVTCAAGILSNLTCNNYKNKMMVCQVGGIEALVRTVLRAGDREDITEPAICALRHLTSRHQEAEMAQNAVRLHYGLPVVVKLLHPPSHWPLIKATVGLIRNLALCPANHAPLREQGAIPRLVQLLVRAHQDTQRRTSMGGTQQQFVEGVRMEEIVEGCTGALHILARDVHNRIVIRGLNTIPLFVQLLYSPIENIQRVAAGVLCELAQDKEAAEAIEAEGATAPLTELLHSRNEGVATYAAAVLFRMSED
ASSAY TEXT: cell-based or functional assay
*1 amine or outer side, *2 acyl side, *3 side chain or, on linkers, in order; H or OH if unused. Primed or numbered codes have the meaning given here. [ ]: non-standard residue; d: D form. PyrS2″ = (S)-3-amino-1-((pent-4-en-1-yloxy)carbonyl)pyrrolidine-3-carboxylic acid (olefin stapling residue), C=CCCCOC(=O)N1CC[C@@](N[*:1])(C(=O)[*:2])C1; 2F3MeF″ = aromatic residue, Cc1cccc(C[C@H](N[*:1])C(=O)[*:2])c1F; Phe(3-COOH) = N[C@@H](Cc1cccc(C(=O)O)c1)C(=O)O; αAllylPro = C=CC[C@@]1(C(=O)O)CCCN1; tBuAla = CC(C)(C)C[C@H](N)C(=O)O; BztA″ = aromatic residue; GlnR = not defined here; B5 = not defined here
READOUT LABEL: NanoBRET Abs IC50

| BINDER | NanoBRET Abs IC50 |
| --- | --- |
| Ac-[αAllylPro]D[tBuAla][B5]D[Phe(3-COOH)][GlnR](29N2spiroundecane)AFL[PyrS2″][2F3MeF″][BztA″][GlnR]A-NH2 (reading uncertain; also: staple links not given here, printed as Ac-PL3-Asp-Npg-B5-Asp-3COOHF-[29N2spiroundecane]GlnR-Ala-Phe-Leu-PyrS2-2F3MeF-BztA-GlnR-Ala-NH2) [I-132] | > 10 µM |

Per the records, this binder ( XDLXDDQAFKXXXQ (not fully specified; Ac-PL3-Asp-Leu-B5-Asp-Asp-GlnR*3-Ala-Phe-Lys*3-PyrS2-3Thi-BztA-Gln-NH2) [I-8] ) has NanoBRET Abs IC50 equal to > 10 µM
